Quick reference: MFI of the listed items.
TESTED_SYSTEM: human DLL3 endogenously expressed on SHP77 and NCI-H82 cells (human) (UniProt Q9NYJ7)
Sequence (Q9NYJ7 27-618): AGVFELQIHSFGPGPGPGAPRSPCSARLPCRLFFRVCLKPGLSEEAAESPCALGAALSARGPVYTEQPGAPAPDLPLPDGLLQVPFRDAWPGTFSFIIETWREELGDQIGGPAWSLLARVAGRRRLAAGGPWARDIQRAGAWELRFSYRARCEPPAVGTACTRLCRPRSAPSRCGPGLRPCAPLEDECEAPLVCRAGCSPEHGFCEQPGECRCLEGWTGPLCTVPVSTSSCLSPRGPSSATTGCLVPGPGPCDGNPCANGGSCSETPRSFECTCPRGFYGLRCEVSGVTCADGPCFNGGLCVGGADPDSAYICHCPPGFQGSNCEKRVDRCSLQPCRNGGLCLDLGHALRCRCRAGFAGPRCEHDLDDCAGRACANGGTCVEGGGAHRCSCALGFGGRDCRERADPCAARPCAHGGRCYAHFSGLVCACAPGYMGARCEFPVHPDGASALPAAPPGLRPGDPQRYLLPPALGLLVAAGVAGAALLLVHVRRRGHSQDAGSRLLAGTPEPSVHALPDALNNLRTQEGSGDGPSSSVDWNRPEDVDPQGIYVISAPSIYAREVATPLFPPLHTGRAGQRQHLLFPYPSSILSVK
EXPERIMENT_DESCRIPTION: FACS SHP77 cells, 4 nM
Write the number in MFI without appending the unit.

mab008 scFv-hFc (Fc fusion, not shown: small tags and cut ends; a dimerising Fc or GST) scFv (part 1 of 2): DIVMTQSQKFMSTSVGDRVSITCKASQNVGTAVAWYQQKPGQSPKLLIFSASIRYTGVPDRFTGSGSGTDFTLTISNMQSEDLADYFCQQYSSSPYTFGGGTKLEIK scFv (part 2 of 2): EVQLQQSGPVLVKPGASVKMSCKASGYTFTDYYMNWVKRSHGKSLEWIGIINPYNGGTSYNQKFRGKATLTVDKSSNTAYMELNSLTSEDSAVYYCSRYDYDYDVEGAMDYWGQGTSVTVSS    365

Report MFI for mab006 scFv-hFc (Fc fusion, not shown: small tags and cut ends; a dimerising Fc or GST) scFv (part 1 of 2): DVQITQSPSYLAASPGETITINCRATKSISKYLAWYQEKPGKTNKLLIFSGSTLQSGIPSRFRGSGSGTDFTLTISSLEPEDFAMYYCQQHHEYPYTFGGGTKLEIK scFv (part 2 of 2): QVQLQQPGAELVRPGTSVKLSCKASGYTFTSYWMHWVRQRPGQGLEWIGVIDPSDSLANYNQEFKGKATLTVDTSSSTAYMQLSSLTSEDSAVYYCARDSTVVAPMDYWGQGTSVTVSS please.
664
